measured-target: Full length human recombinant PIKFYVE (Homo sapiens (Human), UniProt Q9Y2I7)
Sequence (Q9Y2I7 whole entry): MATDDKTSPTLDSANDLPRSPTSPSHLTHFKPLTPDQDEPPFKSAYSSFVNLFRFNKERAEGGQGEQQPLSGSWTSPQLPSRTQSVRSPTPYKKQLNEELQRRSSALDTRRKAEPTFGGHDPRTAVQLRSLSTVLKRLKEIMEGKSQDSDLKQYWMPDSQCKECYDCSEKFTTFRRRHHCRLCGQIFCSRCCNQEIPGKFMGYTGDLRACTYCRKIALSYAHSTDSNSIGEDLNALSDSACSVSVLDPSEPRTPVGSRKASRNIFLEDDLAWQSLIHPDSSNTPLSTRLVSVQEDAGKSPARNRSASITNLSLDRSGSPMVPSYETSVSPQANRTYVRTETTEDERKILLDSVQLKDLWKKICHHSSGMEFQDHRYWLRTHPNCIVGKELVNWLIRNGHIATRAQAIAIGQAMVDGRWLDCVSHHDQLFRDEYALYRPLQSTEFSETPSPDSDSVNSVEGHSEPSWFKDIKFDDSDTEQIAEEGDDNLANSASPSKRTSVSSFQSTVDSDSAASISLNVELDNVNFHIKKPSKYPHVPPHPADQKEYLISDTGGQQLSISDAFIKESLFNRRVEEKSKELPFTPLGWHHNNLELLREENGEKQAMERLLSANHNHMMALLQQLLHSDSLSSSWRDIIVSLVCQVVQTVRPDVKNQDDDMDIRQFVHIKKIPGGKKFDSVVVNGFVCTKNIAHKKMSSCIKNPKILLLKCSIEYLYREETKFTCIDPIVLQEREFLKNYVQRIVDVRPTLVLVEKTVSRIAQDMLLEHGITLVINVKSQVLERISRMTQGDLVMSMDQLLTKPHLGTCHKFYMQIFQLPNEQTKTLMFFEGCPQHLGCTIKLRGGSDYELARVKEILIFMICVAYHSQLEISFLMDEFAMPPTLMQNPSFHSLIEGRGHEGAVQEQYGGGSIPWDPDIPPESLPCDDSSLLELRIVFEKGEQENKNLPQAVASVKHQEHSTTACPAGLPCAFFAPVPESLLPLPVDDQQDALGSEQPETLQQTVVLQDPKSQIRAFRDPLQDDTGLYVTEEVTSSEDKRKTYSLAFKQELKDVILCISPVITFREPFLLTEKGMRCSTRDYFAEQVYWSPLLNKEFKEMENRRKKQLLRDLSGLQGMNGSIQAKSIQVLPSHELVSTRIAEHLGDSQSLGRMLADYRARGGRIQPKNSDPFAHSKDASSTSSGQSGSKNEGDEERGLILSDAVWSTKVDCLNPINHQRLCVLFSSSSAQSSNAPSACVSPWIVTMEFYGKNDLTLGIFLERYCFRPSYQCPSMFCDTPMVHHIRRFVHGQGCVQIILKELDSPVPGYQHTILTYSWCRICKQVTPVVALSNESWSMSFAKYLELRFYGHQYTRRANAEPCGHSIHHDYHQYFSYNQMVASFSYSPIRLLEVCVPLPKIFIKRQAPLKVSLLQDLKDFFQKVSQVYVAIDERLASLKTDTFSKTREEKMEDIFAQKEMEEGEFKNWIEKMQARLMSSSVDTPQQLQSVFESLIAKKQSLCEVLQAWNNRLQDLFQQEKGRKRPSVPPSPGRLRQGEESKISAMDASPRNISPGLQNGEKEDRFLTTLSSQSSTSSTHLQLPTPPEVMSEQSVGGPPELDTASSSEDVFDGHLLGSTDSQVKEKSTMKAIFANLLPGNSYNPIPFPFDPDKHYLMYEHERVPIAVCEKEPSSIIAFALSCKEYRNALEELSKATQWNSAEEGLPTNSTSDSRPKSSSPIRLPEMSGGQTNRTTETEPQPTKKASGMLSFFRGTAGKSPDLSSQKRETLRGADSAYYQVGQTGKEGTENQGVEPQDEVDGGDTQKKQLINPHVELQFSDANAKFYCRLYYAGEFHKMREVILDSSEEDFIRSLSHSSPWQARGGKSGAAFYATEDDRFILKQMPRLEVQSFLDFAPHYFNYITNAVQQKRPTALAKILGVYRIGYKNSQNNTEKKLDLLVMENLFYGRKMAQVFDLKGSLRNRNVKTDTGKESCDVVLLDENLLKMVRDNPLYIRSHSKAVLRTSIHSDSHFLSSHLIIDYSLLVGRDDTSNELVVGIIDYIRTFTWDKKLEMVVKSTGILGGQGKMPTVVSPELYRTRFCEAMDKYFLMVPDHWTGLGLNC
assay-summary: Inhibition of PIKfyve (microfluidic electrophoresis kinase assay)
Assay type: biochemical
assay-context: 2 nM enzyme, PI3P/PS substrate, 3 h at room temperature, 12 concentrations
Listed next: entries and their corresponding pIC50.
Please note pIC50 is a logarithmic value: minus log10 of concentration in mol/L. Answer with that number alone.

Past entries and their recorded results:
Prompt: Item under review: Cc1cccc(-c2ccn(-c3cc(N4CCOCC4)n4nc(C(=O)N[C@@H](C)C5CC5)cc4n3)n2)c1 [Example 22] . Reported pIC50?
Completion: 7.90

Prompt: Form field: reported pIC50 of Cc1cccc(-c2ccn(-c3cc(N4CCOCC4)n4nc(C(=O)NCC5(CO)COC5)cc4n3)n2)c1 [Example 44]
Completion: 7.10

Prompt: May I ask what pIC50 has been recorded for Cc1cc(-c2cc3nc(-n4ccc(-c5ccccn5)n4)cc(N4CCOCC4)n3n2)nn1CCN(C)C [Compound 92] ?
Completion: 5.28

Prompt: pIC50 lookup needed for Cc1cccc(-c2ccn(-c3cc(N4CCOCC4)n4nc(C(=O)N[C@H]5CCOC5)cc4n3)n2)c1 [Compound 50] , thanks.
Completion: 7.74

Prompt: Reported pIC50 for COC(=O)NCc1cc2nc(-n3ccc(-c4ccccc4)n3)cc(N3CCOCC3)n2n1 [Compound 89] : what is it?
Completion: 5.85

Continuing:
Prompt: Return reported pIC50; argument: CON(C)C(=O)c1cc2nc(-n3ccc(-c4cccc(C)c4)n3)cc(N3CCOCC3)n2n1 [Example 33]
Completion: 6.95

Prompt: Given Cc1cccc(-c2ccn(-c3cc(N4CCOCC4)n4nc(-c5cc(C)n(CCN(C)C)n5)cc4n3)n2)n1 [Compound 94] , state its recorded pIC50.
Completion: 5.36

###

# reported pIC50; entries follow
measured-target: Full length human recombinant PIKFYVE (Homo sapiens (Human), UniProt Q9Y2I7)
assay-summary: Inhibition of PIKfyve (microfluidic electrophoresis kinase assay)
assay-context: 2 nM enzyme, PI3P/PS substrate, 3 h at room temperature, 12 concentrations
Value format note: pIC50 is -log10 of concentration (mol/L); just state the number.

Some solved cases for reference:
Prompt: Can you look up the measured pIC50 of Cc1cccc(-c2ccn(-c3cc(N4CCOCC4)n4nc(C(=O)N5CC6(COC6)C5)cc4n3)n2)c1 [Example 45] for me?
Completion: 6.98

Prompt: Please look up its pIC50: Cc1cccc(-c2cnn(-c3cc(N4CCOCC4)n4nc(C(=O)NC5CCOCC5)cc4n3)c2)c1 [Compound 56]
Completion: 5.47

Prompt: State the recorded pIC50 for this entry: Cc1cccc(-c2ccn(-c3cc(N4CCOCC4)n4nc(-c5cc(C)no5)cc4n3)n2)c1 [Compound 110]
Completion: 8.66

More entries:
Prompt: What does the record list as pIC50 for Cc1cccc(-c2ccn(-c3cc(N4CCOCC4)n4nc(C(=O)N[C@@H]5CCCN(C)C5)cc4n3)n2)c1 [Compound 52] ?
Completion: 7.55

Prompt: Request the reported pIC50 associated with c1ccc(-c2ccn(-c3cc(N4CCOCC4)n4nc(-c5cccnc5)cc4n3)n2)cc1 [Compound 64]
Completion: 7.17

###

Tested on: HEK 293T transfected with plasmids containing TDP-43 Q331K mutation
assay-summary: HEK/TDP Survival assay (Cell-Titer-Glo)
Format: cell-based
assay-context: Homo sapiens; HEK 293T TDP-43 Q331K, 48 hrs, CTG readout
assay-metric: EC50 (nM)
// note: answer is a bare numeric in nM

Prompt: Look up EC50 for this molecule: Cc1cccc(-c2ccn(-c3cc(N4CCOCC4)n4nc(-c5ccncc5)cc4n3)n2)c1
Completion: 144

Prompt: Could you tell me which EC50 is on file for Cc1cccc(-c2ccn(-c3cc(N4CCOCC4)n4nc(C(=O)N[C@H](C)C5CC5)cc4n3)n2)c1 ?
Completion: 110
